system: BaF3; experiment: Antiproliferative activity against mouse BaF3 cells harboring EGFR L858R/T790M/C797S triple mutant assessed as inhibition of cell growth incubated for 72 hrs by CellTiter-Glo luminescent assay; assay type: functional, cell-based; conditions: BaF3, 72 h
value-type: IC50 (nM)

>  <molecule>
Nc1nccc(Nc2ccc(NC(=O)C(c3ccccc3)N3Cc4cc(-c5ccc(N6CCNCC6)cc5)ccc4C3=O)c(F)c2)n1 (stereo unspecified)

>  <value-type>
IC50

>  <val>
1430

$$$$

I = Nc1nccc(Nc2ccc(NC(=O)C(c3ccccc3)N3Cc4cc(-c5ccc(N6CCNCC6)cc5)ccc4C3=O)cc2F)n1 (stereo unspecified)
II = Nc1cc(Nc2ccc(NC(=O)C(c3ccccc3)N3Cc4cc(-c5ccc(N6CCNCC6)cc5)ccc4C3=O)cc2)ncn1 (stereo unspecified)
III = O=C(Nc1ccc(Nc2ccncn2)cc1)C(c1ccccc1)N1Cc2cc(-c3ccc(N4CCNCC4)cc3)ccc2C1=O (stereo unspecified)
Form: Sort by [IC50] Order [ ascending ] Record the ranking as a list of labels in the requested order.
I, III, II
